Reference source for all entries: ChEMBL document CHEMBL3301472

Assign % Cell Death to each entry below.
- experimentDescription: MMV: MTT Cytotoxicity Assay Day 7 pi of Assay #6 (compound washed out Day 1 pi), U87-CD4-CCR5 cells, % cell death @ 5mM compound
- Format: toxicity, cell-based
- experimentalSetup: human, u87-cd4-ccr5, 5000 µM
Numbers only.

Some solved entries appear below for comparison.
What measured % Cell Death goes with "Cc1ccc(NC(=O)Nc2cccc(Cl)c2)cc1F" ? 12

What measured % Cell Death goes with "CN(C)c1ccc(N2C(N)=NC(N)=NC2(C)C)cc1" ? 14

What measured % Cell Death goes with "COc1cccc(C=Cc2nc(=O)c3ccccc3o2)c1OC" ? 17

What measured % Cell Death goes with "COc1ccc(-c2nc(NC(=O)CS(=O)(=O)c3ccc(F)cc3)sc2C)cc1" ? -7

What measured % Cell Death goes with "O=C(Nc1ccc(Cl)cc1C(=O)Nc1ccncc1)c1ccc(Cl)cc1Cl" ? 50

Record % Cell Death for all entries; do not skip any.
1. CC(O)(c1ccc(Cl)cc1)C(CN1CCCCC1)c1ccccc1.Cl (stereo not drawn)
2. O=C(CCc1ccccc1)c1ccccc1OCC(O)CN1CCCCC1 (stereo not drawn)
3. OC1=C2C(=Nc3ccccc3SC2c2ccccc2)c2ccccc21 (stereo not drawn)

24
12
-22
